Could you please report measured Crabgrass plant response rating for the items listed next?
- System: crabgrass
- assay-details: Test B pre/postemergence crabgrass
- Format: in vivo, Digitaria sanguinalis
- experimental-conditions: Preemergence, Rate 62 g/ha; scale 0 to 10 (0 no effect, 10 complete control)
Write the number on its own, no unit after it.

Just so you know, measured Crabgrass plant response rating for Cc1ccc(N(C(=O)n2oc(=O)n(C(C)C)c2=O)C(C)C)cc1 came out at 7

Just so you know, measured Crabgrass plant response rating for CN(C(=O)n1oc(=O)n(Cc2ccccc2)c1=O)c1ccccc1 came out at 0

Just so you know, measured Crabgrass plant response rating for CCOC(Cn1c(=O)on(C(=O)N(c2ccc(F)cc2)C(C)C)c1=O)OCC came out at 7

Just so you know, measured Crabgrass plant response rating for Cc1ccccc1-n1c(=O)on(C(=O)N(Cc2ccccc2)C(C)C)c1=O came out at 0

Just so you know, measured Crabgrass plant response rating for CC(C)N(C(=O)n1oc(=O)n(C)c1=O)c1ccc(Cl)cc1 came out at 8

Origin of measurements: patent US6737383B1
